Target: Cdk9/cyclinT1 (Homo sapiens)
Assay: Cdk9/cyclinT1 IMAP Protocol (fluorescence polarization kinase assay)
Details: Cdk9_cyclinT1_IC50, Table V; generated using one of the two Cdk9/cyclinT1 assays (IMAP or Alpha Screen), not stated which; ATP 6 uM
Entries annotated with measured pIC50
Scale note: pIC50 = -log10(concentration in M).

The following compounds have reported results that may help.
[
  {
    "compound": "CS(=O)(=O)N1CCC[C@@H](C(=O)Nc2cc(-c3cccc(NCC4CCOCC4)n3)c(Cl)cn2)C1 [Example 83]",
    "measuredResult": 6.32
  },
  {
    "compound": "CO[C@H]1CNC[C@@H](C(=O)Nc2cc(-c3cccc(NCC4CCOCC4)n3)c(Cl)cn2)C1 (single isomer, unassigned) [Example 212]",
    "measuredResult": 6.77
  },
  {
    "compound": "CC[C@H]1CC[C@@H](C(=O)Nc2cc(-c3ccc(F)c(NCC4CCOCC4)n3)c(Cl)cn2)CN1 (racemic) [Example 252]",
    "measuredResult": 9.00
  },
  {
    "compound": "O=C(Nc1cc(-c2cccc(NCC3CCOCC3)n2)c(Cl)cn1)[C@@H]1CCCO1 [Example 67]",
    "measuredResult": 6.40
  },
  {
    "compound": "CC1(C)CO[C@H](CNc2cccc(-c3cc(NC(=O)[C@@H]4CCCNC4)ncc3Cl)n2)CO1 (single isomer, unassigned) [Example 232]",
    "measuredResult": 9.00
  }
]

Then this compound:
Exam item: Give pIC50; test system Cdk9/cyclinT1 (Homo sapiens); compound COC[C@@H]1CC[C@@H](C(=O)Nc2cc(-c3cccc(NCC4CCOCC4)n3)c(Cl)cn2)CN1 (racemic) [Example 221]
Marked response: 8.52

* * *

Target: Cdk9/cyclinT1 (Homo sapiens, UniProt P50750)
Sequence (P50750 whole entry): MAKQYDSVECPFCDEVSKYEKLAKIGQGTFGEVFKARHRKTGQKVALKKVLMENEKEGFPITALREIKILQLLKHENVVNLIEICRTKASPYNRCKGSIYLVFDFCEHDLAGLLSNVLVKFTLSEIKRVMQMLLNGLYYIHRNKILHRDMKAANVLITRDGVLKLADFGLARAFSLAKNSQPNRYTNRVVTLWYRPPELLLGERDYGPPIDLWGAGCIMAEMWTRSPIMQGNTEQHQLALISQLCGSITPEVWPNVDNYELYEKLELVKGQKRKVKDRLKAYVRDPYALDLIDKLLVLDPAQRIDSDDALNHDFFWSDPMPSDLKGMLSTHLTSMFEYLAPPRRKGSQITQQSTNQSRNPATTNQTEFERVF
Sequence (O60563 whole entry partner): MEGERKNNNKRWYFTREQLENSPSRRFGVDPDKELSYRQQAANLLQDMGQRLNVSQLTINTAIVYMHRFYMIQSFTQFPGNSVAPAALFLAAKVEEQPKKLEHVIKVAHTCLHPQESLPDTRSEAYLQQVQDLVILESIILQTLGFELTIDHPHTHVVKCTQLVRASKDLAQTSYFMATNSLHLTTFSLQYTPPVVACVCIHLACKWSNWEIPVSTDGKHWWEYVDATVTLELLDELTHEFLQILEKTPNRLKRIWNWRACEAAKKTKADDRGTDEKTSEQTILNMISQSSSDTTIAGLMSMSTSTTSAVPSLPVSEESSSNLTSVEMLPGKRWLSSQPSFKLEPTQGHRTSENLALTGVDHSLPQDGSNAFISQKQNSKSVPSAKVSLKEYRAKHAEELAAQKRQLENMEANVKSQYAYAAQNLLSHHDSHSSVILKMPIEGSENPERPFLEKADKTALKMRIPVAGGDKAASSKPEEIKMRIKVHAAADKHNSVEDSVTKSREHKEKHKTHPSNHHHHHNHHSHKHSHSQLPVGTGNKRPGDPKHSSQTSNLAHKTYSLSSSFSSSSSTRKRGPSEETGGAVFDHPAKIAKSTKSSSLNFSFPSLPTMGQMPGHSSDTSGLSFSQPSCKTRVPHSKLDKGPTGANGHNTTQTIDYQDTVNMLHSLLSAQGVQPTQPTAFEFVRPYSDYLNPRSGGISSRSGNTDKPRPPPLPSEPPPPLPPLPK
Assay: Cdk9/cyclinT1 IMAP Protocol (fluorescence polarization kinase assay)
Conditions: Cdk9_cyclinT1_IC50, Table V; generated using one of the two Cdk9/cyclinT1 assays (IMAP or Alpha Screen), not stated which; ATP 6 uM
Entries annotated with measured pIC50
Scale note: pIC50 = -log10(concentration in M).

[
  {
    "compound": "O=C(Nc1cc(-c2nc(NCC3CCOCC3)ccc2Cl)c(Cl)cn1)[C@H]1CNCCO1",
    "quantityMeasured": "pIC50",
    "measuredResult": 8.10
  },
  {
    "compound": "O=C(Nc1cc(-c2cccc(NCC3CCOCC3)n2)c(Cl)cn1)[C@@H]1CC[C@@H](C(F)(F)F)NC1 (racemic)",
    "quantityMeasured": "pIC50",
    "measuredResult": 8.05
  },
  {
    "compound": "COC[C@@H]1CC[C@H](C(=O)Nc2cc(-c3cccc(NCC4CCOCC4)n3)c(Cl)cn2)CN1 (racemic)",
    "quantityMeasured": "pIC50",
    "measuredResult": 7.85
  }
]

Then this compound:
Exam item: Given the compound C[C@@H](Nc1cccc(-c2cc(NC(=O)[C@@H]3CCCNC3)ncc2Cl)n1)C1CCOCC1 , write its reported pIC50.
Marked response: 7.96

* * *

Entries annotated with measured IC50
Target: Cdk9/cyclinT1 (Homo sapiens)
Test: Cdk9/cyclinT1 IMAP Protocol (fluorescence polarization kinase assay)
Settings: Cdk9_cyclinT1_IC50, Table V; generated using one of the two Cdk9/cyclinT1 assays (IMAP or Alpha Screen), not stated which; ATP 6 uM

The following molecules have reported results that may help.
[
  {
    "molecule": "C[C@@H]1CC[C@@H](C(=O)Nc2cc(-c3cccc(NCC4CCOCC4)n3)c(Cl)cn2)CN1 (racemic) [Example 127]",
    "IC50": "9 nM"
  },
  {
    "molecule": "O=C(Nc1cc(-c2nc(NCC3CCOCC3)ccc2F)c(Cl)cn1)[C@H]1CNCCO1",
    "IC50": "5 nM"
  },
  {
    "molecule": "O=C(Nc1cc(-c2ccc(F)c(NCC3CCOCC3)n2)c(Cl)cn1)[C@@H]1CCNC1",
    "IC50": "1 nM"
  }
]

Exam item: Give IC50; test system Cdk9/cyclinT1 (Homo sapiens); molecule CC1(C)C[C@H](CNc2cccc(-c3cc(NC(=O)[C@H]4CNCCO4)ncc3Cl)n2)CCO1 (single isomer, unassigned)
Marked response: < 8 nM
